As an illustration, consider measured pIC50 for compounds on LSD-1 enzyme (Homo sapiens (Human), UniProt O60341).
pIC50: −log10 of the molar value.

Query CCN1CCC[C@@H](COc2nc(-c3ccc(C#N)cc3)c(-c3ccc4c(c3)oc(=O)n4C)c3nccn23)C1 yields pIC50 of ≥ 7.30

Query CN(C)C1CCN(c2nc(-c3ccc(C#N)cc3)c(-c3ccc4c(c3)nc(C(F)F)n4C)c3nccn23)CC1 yields pIC50 of ≥ 7.30

Query COc1ccc(-c2c(-c3ccc(C#N)cc3)nc(N3CCC(N(C)C)CC3)n3ccnc23)cn1 yields pIC50 of 6.30 to 7.30

Query Cc1ccc(-c2c(-c3ccc(C#N)cc3)nc(OC[C@@H]3CCCN(C)C3)n3ccnc23)cc1 yields pIC50 of ≥ 7.30

====

As an illustration, consider measured IC50 for compounds on LSD-1 enzyme (Homo sapiens (Human), UniProt O60341).

Query CCN1CCC[C@@H](COc2nc(-c3ccc(C#N)cc3)c(-c3cc(C)c(CO)c(F)c3)c3nccn23)C1 yields IC50 of ≤ 50 nM

Query CN1C(=O)CCc2ccc(-c3c(-c4ccc(C#N)cc4)nc(N4CCC(N(C)C)CC4)n4ccnc34)cc21 yields IC50 of 50 to 500 nM

Query CN1CCC[C@@H](COc2nc(-c3ccc(C#N)cc3)c(-c3ccc4c(c3)C(O)CC4)c3nccn23)C1 (stereo partly shown) yields IC50 of ≤ 50 nM

Query Cc1cc(-c2c(-c3ccc(C#N)cc3)nc(N3CCC(N(C)C)CC3)n3ccnc23)cnc1C yields IC50 of ≤ 50 nM

====

pIC50: −log10 of the molar value.
Observed Property: pIC50

Kindly note: LSD-1 enzyme (Homo sapiens (Human)), CN1CCC[C@@H](COc2nc(-c3ccc(C#N)cc3)c(-c3ccc(CN(C)C(=O)N(C)C)cc3)c3nccn23)C1 , pIC50 value reported: ≥ 7.30

Kindly note: LSD-1 enzyme (Homo sapiens (Human)), CN1CCC[C@@H](COc2nc(-c3ccc(C#N)cc3)c(-c3ccc(CN(C)S(C)(=O)=O)c(F)c3)c3nccn23)C1 , pIC50 value reported: 6.30 to 7.30

Kindly note: LSD-1 enzyme (Homo sapiens (Human)), CN1CCC[C@@H](COc2nc(-c3ccc(C#N)cc3)c(-c3ccc(CN4CCOCC4)cc3)c3nccn23)C1 , pIC50 value reported: 6.30 to 7.30

Kindly note: LSD-1 enzyme (Homo sapiens (Human)), COc1ccc(-c2c(-c3ccc(C#N)cc3)nc(OC[C@@H]3CCCN(CCO)C3)n3ccnc23)cn1 , pIC50 value reported: ≥ 7.30

Kindly note: LSD-1 enzyme (Homo sapiens (Human)), COc1ncc(-c2c(-c3ccc(C#N)cc3)nc(N3CCC(N(C)C)CC3)n3ccnc23)cc1Cl , pIC50 value reported: ≥ 7.30

Kindly note: LSD-1 enzyme (Homo sapiens (Human)), COc1ncc(-c2c(-c3ccc(C#N)cc3)nc(N3CCC(N(C)C)CC3)n3ccnc23)cc1C , pIC50 value reported: ≥ 7.30

Kindly note: LSD-1 enzyme (Homo sapiens (Human)), CN(C)C1CCN(c2nc(-c3ccc(C#N)cc3)c(-c3cnc4c(ccn4C)c3)c3nccn23)CC1 , pIC50 value reported: ≥ 7.30

Kindly note: LSD-1 enzyme (Homo sapiens (Human)), CC(C)c1ccc(-c2c(-c3ccc(C#N)cc3)nc(N3CCC(N(C)C)CC3)n3ccnc23)cn1 , pIC50 value reported: 6.30 to 7.30

Kindly note: LSD-1 enzyme (Homo sapiens (Human)), CN1CCC[C@@H](COc2nc(-c3ccc(C#N)cc3)c(-c3cc(F)c4c(c3)oc(=O)n4C)c3nccn23)C1 , pIC50 value reported: ≥ 7.30

Kindly note: LSD-1 enzyme (Homo sapiens (Human)), Cc1cc(-c2c(-c3ccc(C#N)cc3)nc(N3CCC(N(C)C)CC3)n3ccnc23)ccc1CO , pIC50 value reported: ≥ 7.30

The reported numbers originate from patent US9944647B2.
